- Test system: PmTbr T-box DNA-binding domain (GST fusion);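 also: 200 nM protein in PBS on universal arrays averaged over duplicate arrays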
- Sequence: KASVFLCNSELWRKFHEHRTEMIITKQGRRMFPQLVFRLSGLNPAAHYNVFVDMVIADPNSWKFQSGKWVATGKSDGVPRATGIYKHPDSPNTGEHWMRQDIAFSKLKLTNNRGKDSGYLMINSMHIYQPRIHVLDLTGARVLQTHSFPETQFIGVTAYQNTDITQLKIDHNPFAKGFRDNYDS
- Experimental protocol: PBM E-score of 8-mer (E-score (dimensionless, -0.5 to 0.5)); higher = stronger binding preference
- Setup conditions: the construct has about 5 more residues each side
Over roughly 33,000 sequences, “E-score (dimensionless, -0.5 to 0.5)” has its median near -0.049; the highest 2% begin near 0.37. This is one part of a sample in which the highest values are shown more often than they occur.
Reported endpoint: PBM E-score of 8-mer
Reply with just the number.

>  <Query sequence>
CGTTCACC

>  <Value reported>
-0.0379

$$$$

stdin: Provide only the value of recorded PBM E-score of 8-mer for CCTGACAG
stdout: 0.218

stdin: Provide only the value of recorded PBM E-score of 8-mer for AGAGAAAG
stdout: 0.0684

stdin: Provide only the value of recorded PBM E-score of 8-mer for GCCTGTGA
stdout: 0.107

stdin: Provide only the value of recorded PBM E-score of 8-mer for AGGGTGTC
stdout: 0.435

stdin: Provide only the value of recorded PBM E-score of 8-mer for AGGGTGTG
stdout: 0.43

stdin: Provide only the value of recorded PBM E-score of 8-mer for AACAACTG
stdout: 0.236

stdin: Provide only the value of recorded PBM E-score of 8-mer for AGAGGGTC
stdout: -0.202

stdin: Provide only the value of recorded PBM E-score of 8-mer for ACCATTAA
stdout: -0.0404

stdin: Provide only the value of recorded PBM E-score of 8-mer for GGTGGCAC
stdout: 0.388

----------
- Tested on: PmTbr T-box DNA-binding domain (GST fusion);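 also: 200 nM protein in PBS on universal arrays averaged over duplicate arrays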
- Sequence: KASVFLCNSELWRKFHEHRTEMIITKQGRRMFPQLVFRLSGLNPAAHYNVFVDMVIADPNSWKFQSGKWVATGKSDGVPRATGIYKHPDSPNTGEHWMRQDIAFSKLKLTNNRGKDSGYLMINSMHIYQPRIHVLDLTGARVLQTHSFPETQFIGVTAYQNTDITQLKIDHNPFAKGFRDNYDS
- Experimental protocol: PBM E-score of 8-mer (E-score (dimensionless, -0.5 to 0.5)); higher = stronger binding preference
- Setup conditions: target sequence: T-box / the construct has about 5 more residues each side
In all, about 33,000 sequences were measured (“E-score (dimensionless, -0.5 to 0.5)”: median about -0.049, highest 2% from about 0.37 on). The full list was thinned out, with the highest values kept by preference.
Quick rule: PBM E-score of 8-mer of at least 0.2 means t, below that means f.

Some entries whose results are on file:
>  <Query sequence>
GACACTTA

>  <Assigned category>
t

$$$$
>  <Query sequence>
GATTCACC

>  <Assigned category>
f

$$$$
>  <Query sequence>
TATGAGAA

>  <Assigned category>
f

$$$$
>  <Query sequence>
AGCACCGA

>  <Assigned category>
f

$$$$
>  <Query sequence>
CAGTGCGC

>  <Assigned category>
f

$$$$
>  <Query sequence>
AAGTGCGA

>  <Assigned category>
t

$$$$
>  <Query sequence>
AAGAAAAC

>  <Assigned category>
f

$$$$
>  <Query sequence>
GGGGGGCA

>  <Assigned category>
f

$$$$

stdin: PBM E-score of 8-mer >= 0.2 for AAGTGCGT ?
stdout: f

stdin: PBM E-score of 8-mer >= 0.2 for CATTCACG ?
stdout: t

----------
- Test system: PmTbr T-box DNA-binding domain (GST fusion);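 also: 200 nM protein in PBS on universal arrays averaged over duplicate arrays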
- Sequence: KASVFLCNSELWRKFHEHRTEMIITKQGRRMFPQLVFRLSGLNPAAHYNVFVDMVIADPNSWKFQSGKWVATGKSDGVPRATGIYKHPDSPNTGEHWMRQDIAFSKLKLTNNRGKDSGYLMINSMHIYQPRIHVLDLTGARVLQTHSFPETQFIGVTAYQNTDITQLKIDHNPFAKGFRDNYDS
- Experimental protocol: PBM E-score of 8-mer (E-score (dimensionless, -0.5 to 0.5)); higher = stronger binding preference
- Setup conditions: target sequence: T-box / the construct has about 5 more residues each side
In all, about 33,000 sequences were measured (“E-score (dimensionless, -0.5 to 0.5)”: median about -0.049, highest 2% from about 0.37 on). Only a selection was taken, and the highest values are over-represented in it overall.
Quick rule: PBM E-score of 8-mer of at least 0.06 means yes (1), below that means no (0).

Some entries whose results are on file:
>  <Query sequence>
ACACATCG

>  <Assigned category>
yes (1)

$$$$
>  <Query sequence>
GGTGCTAA

>  <Assigned category>
yes (1)

$$$$

stdin: PBM E-score of 8-mer >= 0.06 for GGCTAAAA ?
stdout: no (0)

stdin: PBM E-score of 8-mer >= 0.06 for CGTGCGCA ?
stdout: yes (1)

stdin: PBM E-score of 8-mer >= 0.06 for AGTGCTAG ?
stdout: yes (1)

stdin: PBM E-score of 8-mer >= 0.06 for GGCAACGA ?
stdout: yes (1)

stdin: PBM E-score of 8-mer >= 0.06 for GGTGCTTA ?
stdout: yes (1)

stdin: PBM E-score of 8-mer >= 0.06 for CCACCTGC ?
stdout: yes (1)

stdin: PBM E-score of 8-mer >= 0.06 for AGACCTTC ?
stdout: no (0)

stdin: PBM E-score of 8-mer >= 0.06 for ACGTGTCG ?
stdout: yes (1)

stdin: PBM E-score of 8-mer >= 0.06 for CAGGTGGC ?
stdout: yes (1)

stdin: PBM E-score of 8-mer >= 0.06 for AGTGCGAC ?
stdout: yes (1)

stdin: PBM E-score of 8-mer >= 0.06 for ACACTGAC ?
stdout: yes (1)

----------
- Tested on: PmTbr T-box DNA-binding domain (GST fusion);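 also: 200 nM protein in PBS on universal arrays averaged over duplicate arrays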
- Sequence: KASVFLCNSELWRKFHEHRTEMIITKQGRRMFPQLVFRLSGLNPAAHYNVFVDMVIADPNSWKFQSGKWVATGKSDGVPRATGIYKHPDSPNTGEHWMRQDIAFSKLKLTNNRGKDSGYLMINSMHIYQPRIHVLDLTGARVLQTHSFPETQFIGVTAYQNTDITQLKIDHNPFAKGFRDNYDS
- Experimental protocol: PBM E-score of 8-mer (E-score (dimensionless, -0.5 to 0.5)); higher = stronger binding preference
- Setup conditions: target sequence: T-box / the construct has about 5 more residues each side
Whole data set: some 33,000 sequences, median “E-score (dimensionless, -0.5 to 0.5)” near -0.049, cut for the highest 2% near 0.37. The entries come from a sample that favours the highest values as a whole.
Reported endpoint: PBM E-score of 8-mer
Reply with just the number.

Below: 5 sequences and their reported PBM E-score of 8-mer.
>  <Query sequence>
CCGCGAAA

>  <Measured on>
PmTbr T-box DNA-binding domain (GST fusion);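 also: 200 nM protein in PBS on universal arrays averaged over duplicate arrays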

>  <Reported endpoint>
PBM E-score of 8-mer

>  <Value reported>
0.305

$$$$
>  <Query sequence>
GAAGGTAA

>  <Measured on>
PmTbr T-box DNA-binding domain (GST fusion);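 also: 200 nM protein in PBS on universal arrays averaged over duplicate arrays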

>  <Reported endpoint>
PBM E-score of 8-mer

>  <Value reported>
0.00393

$$$$
>  <Query sequence>
AGTGTCCC

>  <Measured on>
PmTbr T-box DNA-binding domain (GST fusion);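 also: 200 nM protein in PBS on universal arrays averaged over duplicate arrays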

>  <Reported endpoint>
PBM E-score of 8-mer

>  <Value reported>
0.176

$$$$
>  <Query sequence>
CCACCCTA

>  <Measured on>
PmTbr T-box DNA-binding domain (GST fusion);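 also: 200 nM protein in PBS on universal arrays averaged over duplicate arrays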

>  <Reported endpoint>
PBM E-score of 8-mer

>  <Value reported>
0.0728

$$$$
>  <Query sequence>
CCACCCTC

>  <Measured on>
PmTbr T-box DNA-binding domain (GST fusion);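 also: 200 nM protein in PBS on universal arrays averaged over duplicate arrays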

>  <Reported endpoint>
PBM E-score of 8-mer

>  <Value reported>
0.0601

$$$$

stdin: Provide only the value of recorded PBM E-score of 8-mer for GCGCGAAC
stdout: 0.411

stdin: Provide only the value of recorded PBM E-score of 8-mer for TCGCGAAA
stdout: 0.409

stdin: Provide only the value of recorded PBM E-score of 8-mer for GAAGGTGC
stdout: 0.439

stdin: Provide only the value of recorded PBM E-score of 8-mer for CGTGTCAC
stdout: 0.387

stdin: Provide only the value of recorded PBM E-score of 8-mer for ACTCAAAT
stdout: -0.125

stdin: Provide only the value of recorded PBM E-score of 8-mer for ATACCCTG
stdout: -0.154

stdin: Provide only the value of recorded PBM E-score of 8-mer for AATGTCAC
stdout: 0.329

----------
- System: PmTbr T-box DNA-binding domain (GST fusion);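 also: 200 nM protein in PBS on universal arrays averaged over duplicate arrays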
- Sequence: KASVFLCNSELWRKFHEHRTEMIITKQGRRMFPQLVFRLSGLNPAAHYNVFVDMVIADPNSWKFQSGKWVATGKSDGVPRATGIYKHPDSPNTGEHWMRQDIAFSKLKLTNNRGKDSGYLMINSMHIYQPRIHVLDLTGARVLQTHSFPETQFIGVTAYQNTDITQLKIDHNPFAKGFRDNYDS
- Experimental protocol: PBM E-score of 8-mer (E-score (dimensionless, -0.5 to 0.5)); Tbr is Tbrain of the sea star Patiria miniata (Pm) or the sea urchin Strongylocentrotus purpuratus (Sp); higher = stronger binding preference
- Setup conditions: target sequence: T-box / the construct has about 5 more residues each side
Whole data set: some 33,000 sequences, median “E-score (dimensionless, -0.5 to 0.5)” near -0.049, cut for the highest 2% near 0.37. Shown is part of a subset that was picked to be rich in the highest values.
Quick rule: PBM E-score of 8-mer of at least 0.1 means yes, below that means no.

Some entries whose results are on file:
>  <Query sequence>
CGCCGCAA

>  <Assigned category>
no

$$$$
>  <Query sequence>
AAGTGCTG

>  <Assigned category>
yes

$$$$
>  <Query sequence>
GGCATTTA

>  <Assigned category>
no

$$$$
>  <Query sequence>
CGCACCTC

>  <Assigned category>
yes

$$$$
>  <Query sequence>
AGCACCGC

>  <Assigned category>
no

$$$$

stdin: PBM E-score of 8-mer >= 0.1 for ATGCTAGA ?
stdout: no

stdin: PBM E-score of 8-mer >= 0.1 for GAGTTGCC ?
stdout: no

stdin: PBM E-score of 8-mer >= 0.1 for GTTCGCGA ?
stdout: yes

stdin: PBM E-score of 8-mer >= 0.1 for CCACATTA ?
stdout: yes

stdin: PBM E-score of 8-mer >= 0.1 for TCTAAGAA ?
stdout: no

stdin: PBM E-score of 8-mer >= 0.1 for AGCACCGG ?
stdout: no

stdin: PBM E-score of 8-mer >= 0.1 for GTGGGCCA ?
stdout: no
